targetOrTestSystem: Extracellular calcium-sensing receptor (Homo sapiens)
Sequence (P41180 whole entry): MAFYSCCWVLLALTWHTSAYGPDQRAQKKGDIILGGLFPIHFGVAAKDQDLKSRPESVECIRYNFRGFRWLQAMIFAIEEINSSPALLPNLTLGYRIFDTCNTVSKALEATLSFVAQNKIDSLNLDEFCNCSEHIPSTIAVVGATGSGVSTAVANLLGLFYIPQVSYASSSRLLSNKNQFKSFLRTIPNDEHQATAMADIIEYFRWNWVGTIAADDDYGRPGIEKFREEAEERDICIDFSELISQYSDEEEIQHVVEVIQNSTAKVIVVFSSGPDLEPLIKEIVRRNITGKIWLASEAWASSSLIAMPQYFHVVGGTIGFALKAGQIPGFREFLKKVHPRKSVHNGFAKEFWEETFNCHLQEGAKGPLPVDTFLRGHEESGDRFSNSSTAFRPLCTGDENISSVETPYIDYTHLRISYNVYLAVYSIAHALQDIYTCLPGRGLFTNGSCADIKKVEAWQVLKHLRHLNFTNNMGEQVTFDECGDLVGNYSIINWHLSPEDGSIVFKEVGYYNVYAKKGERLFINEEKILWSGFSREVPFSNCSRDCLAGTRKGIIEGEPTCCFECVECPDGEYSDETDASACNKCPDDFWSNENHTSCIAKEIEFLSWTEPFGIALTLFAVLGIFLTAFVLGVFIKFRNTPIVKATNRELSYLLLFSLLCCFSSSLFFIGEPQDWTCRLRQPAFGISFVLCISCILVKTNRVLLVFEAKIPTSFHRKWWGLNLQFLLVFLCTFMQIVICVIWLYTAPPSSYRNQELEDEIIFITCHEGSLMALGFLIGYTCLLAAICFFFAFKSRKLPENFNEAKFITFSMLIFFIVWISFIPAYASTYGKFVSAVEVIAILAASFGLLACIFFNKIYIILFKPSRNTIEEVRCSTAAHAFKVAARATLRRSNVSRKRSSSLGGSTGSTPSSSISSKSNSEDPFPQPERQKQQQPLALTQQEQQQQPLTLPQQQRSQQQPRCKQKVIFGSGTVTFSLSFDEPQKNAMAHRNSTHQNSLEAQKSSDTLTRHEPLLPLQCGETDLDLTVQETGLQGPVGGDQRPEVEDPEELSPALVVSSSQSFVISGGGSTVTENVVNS
assayProcedure: Inhibition of intracellular calcium release in human TT cells containing calcium-sensing receptor by FLIPR
Rule: measured IC50 below 1000 nM gets 1; anything equal to or greater than 1000 nM gets -1.

CC(C)(Cc1ccc2ccccc2c1)NC[C@@H](O)[C@H]1CCCN1Cc1cccc(C#N)c1 : 1
CC(C)(Cc1ccc2ccccc2c1)NC[C@H](O)COc1cccc(Cl)c1C#N : 1
CC(C)(Cc1ccc2ccccc2c1)NC[C@H](O)[C@H]1CCCN1Cc1ccccc1C#N : -1
CC(C)(Cc1nc2ccccc2s1)NC[C@@H](O)[C@H]1CCCN1Cc1cccc(C#N)c1 : -1
CC(C)(Cc1ccc2ccccc2c1)NCCCOc1cccc(Cl)c1C#N : 1
CC(C)(Cc1ccccc1)NC[C@H](O)COc1ccccc1S(C)(=O)=O : -1
COc1ccc(CC(C)(C)NC[C@H](O)COc2cccc(OC)c2)cc1 : -1
COc1ccc(CC(C)(C)NC[C@@H](O)[C@H]2CCCN2Cc2cccc(C#N)c2)cc1 : -1

Task: IC50 under 1000 nM? Item: "CC(C)(Cc1ccc(F)cc1)NC[C@@H](O)COc1cccc(Cl)c1C#N"
Output: 1

Task: Repeat with "COc1cccc(CN2CCC[C@@H]2[C@H](O)CNC(C)(C)Cc2ccc3ccccc3c2)c1O"
Output: -1
